# test-details: qHTS for Inhibitors of Plasmodium falciparum (CP250) proliferation (AID 504320)
# details: P. falciparum CP250 in erythrocytes, SYBR Green DNA, 72 h; series mostly up to 6.7 µM
Results filed as inconclusive are left out. Calls of active or inactive are those of the source. The call rests on the fitted dose curve; in most records, active means well fitted inhibition curve with a large enough effect; inconclusive means small, poorly fitted or top-dose-only effect, or effect the other way; inactive means flat fitted curve, though single readings scatter.
measure-name: outcome

molecule="CCN1C(=NCc2cc(OC)c(OC)c(OC)c2)NC(c2ccccc2)C(C(=O)OC)=C1C (stereo not drawn)" measure_name=outcome value_reported=inactive
molecule="CCN1C(=NCc2cc(OC)c(OC)c(OC)c2)NC(c2cccc(F)c2)C(C(=O)OC)=C1C (stereo not drawn)" measure_name=outcome value_reported=inactive
molecule=COC(=O)[C@@H]1[C@@H](c2ccccc2)NC(=O)N(Cc2ccccc2)[C@@H]1C measure_name=outcome value_reported=inactive
molecule=CCN1C(=NCCc2ccc(Br)cc2)N[C@@H](c2ccccc2)[C@H](C(=O)OC)[C@H]1C measure_name=outcome value_reported=inactive
molecule=CCOC(=O)NN=C1C[C@@H](O)[C@@H](O)[C@@H]2[C@H]3C(=O)N(c4ccc(F)cc4F)C(=O)[C@@H]3CC[C@H]12 measure_name=outcome value_reported=inactive
molecule=CC(C)=CCCC(C)=CCON=C1C[C@@H](O)[C@@H](O)[C@@H]2[C@H]3C(=O)N(c4ccc(F)cc4F)C(=O)[C@@H]3CC[C@H]12 measure_name=outcome value_reported=inactive
molecule=C[C@H]1Cc2c(COc3ccccc3)nc3c(c2CO1)CN(C(=O)c1cc(I)ccc1F)CC3 measure_name=outcome value_reported=inactive
molecule=CCOC(=O)C1=NO[C@@]2(C=C(Br)C(=O)[C@H]3O[C@H]32)C1 measure_name=outcome value_reported=inactive

----------
# test-details: qHTS for Inhibitors of Plasmodium falciparum (CP250) proliferation (AID 504320)
# details: P. falciparum CP250 in erythrocytes, SYBR Green DNA, 72 h; series mostly up to 6.7 µM
Results filed as inconclusive are left out. The source made the active and inactive calls. Calls come from the whole dose curve; as a rule, active = well fitted inhibition curve with a large enough effect; inconclusive = small, poorly fitted or top-dose-only effect, or effect the other way; inactive = flat fitted curve, though single readings scatter.
measure-name: outcome

compound=COc1ccc(COC(=O)NN=C2C[C@@H](O)[C@@H](O)[C@@H]3[C@H]4C(=O)N(Cc5ccccc5)C(=O)[C@@H]4CC[C@@H]23)cc1 measure_name=outcome value_reported=inactive
compound=CCOC(=O)CN1C(=O)N[C@@H](c2cccc(C(F)(F)F)c2)[C@H](C(C)=O)[C@H]1C measure_name=outcome value_reported=inactive
compound="COCCN1C(=O)NC(c2cccc(F)c2)C(C(=O)OC)=C1C (stereo unspecified)" measure_name=outcome value_reported=inactive
compound=CCCCc1nc2c(c3c1C[C@H](C)OC3)CN(S(=O)(=O)CCCC)CC2 measure_name=outcome value_reported=inactive
compound="COC(=O)N1C(c2ccccc2)=Cc2ccccc2C1C1(C(=O)OC)CCCC1=O (stereo unspecified)" measure_name=outcome value_reported=inactive
compound=CC(C)[C@@H](OCc1ccccc1)[C@H](C)C=NOC[C@@H](C)[C@H](OCc1ccccc1)C(C)C measure_name=outcome value_reported=inactive
compound="CC12C=C(C=CCCc3ccco3)C(C)(C1)C(CCc1ccco1)CC2=O (stereo unspecified)" measure_name=outcome value_reported=inactive
compound="CC1(OC(=O)c2ccc(Cl)nc2)C(=O)C=C2C=C3CCCN3C=C2C1=O (stereo unspecified)" measure_name=outcome value_reported=inactive
compound="C=CC1(O)C(OC)=CC2C(=O)C1C(c1ccccc1)C2C (stereo unspecified)" measure_name=outcome value_reported=inactive
compound="COC(=O)C1=C(C)N(Cc2ccco2)C(=O)NC1c1ccco1 (stereo unspecified)" measure_name=outcome value_reported=inactive
compound="CCN1C(=O)N(C)C(c2ccccc2)C(C(C)=O)=C1C (stereo unspecified)" measure_name=outcome value_reported=inactive
compound=C[C@@H]1C=CCCO[C@]12C(=O)N(CC1CC1)c1ccccc12 measure_name=outcome value_reported=inactive
compound=COc1cccc([C@H]2Oc3ccc(OC)cc3C(=NO[C@H](C)CN3CCCc4nc(C)c(C)cc43)[C@H]2O)c1 measure_name=outcome value_reported=inactive
compound="C=C(C)C1CC23C(=O)[C@]4(C(=O)c5ccccc5)C[C@@]5(C)CCC(CC2C1(C)C)(C4=O)[C@@]35OC (stereo partly specified)" measure_name=outcome value_reported=inactive
compound=COC(=O)N[C@@H](C=Cc1ccccc1)C[N+](=O)[O-] measure_name=outcome value_reported=inactive
compound=CCOC(=O)CN1C(=O)[C@@]2(C[C@@H](C)C[C@@H](C)O2)c2ccccc21 measure_name=outcome value_reported=inactive
compound=COC[C@H]1O[C@H](c2ccccc2)C=C[C@H]1OCc1cccc(Br)c1 measure_name=outcome value_reported=inactive
compound="COC(=O)C1=C(C)N(Cc2ccco2)C(=O)NC1c1ccc(Br)cc1 (stereo unspecified)" measure_name=outcome value_reported=inactive
compound=CCOC(=O)CCN1C(=O)[C@@H]2[C@H]3[C@H](O)[C@H](O)CC(=NO[C@@H]4O[C@H](COC(C)=O)[C@@H](OC(C)=O)[C@H](OC(C)=O)[C@@H]4OC(C)=O)[C@H]3CC[C@H]2C1=O measure_name=outcome value_reported=inactive
compound="C=CCN=C1NC(c2cccc(F)c2)C(C(=O)OC)=C(C)N1Cc1ccccc1 (stereo unspecified)" measure_name=outcome value_reported=inactive
compound=CC(=O)[C@@H]1[C@@H](C)N(Cc2ccccc2)C(=O)N[C@H]1c1ccccc1 measure_name=outcome value_reported=inactive
compound=CCCCCCC(=O)Cc1cc(OC)c(OC)cc1C=C(C(C)=O)C(=O)OC measure_name=outcome value_reported=inactive
compound=CCOC(=O)CCN1C(=O)[C@@H]2[C@H]3[C@H](O)[C@H](O)CC(=NOCc4ccccc4)[C@@H]3CC[C@H]2C1=O measure_name=outcome value_reported=inactive
compound=COC(=O)C1=C(C(=O)OC)[C@@H]2N(C)c3ccccc3[C@@]23C[C@@H](C(=O)OC)N(C(=O)c2ccc(Br)cc2)C3=N1 measure_name=outcome value_reported=inactive
compound=CC(C)=CCN1C(=O)[C@@]2(CC(C)=CC[C@@H](COc3ccccc3)O2)c2ccccc21 measure_name=outcome value_reported=inactive
compound=CC(C)CON=C1C[C@@H](O)[C@@H](O)[C@@H]2[C@H]3C(=O)N(Cc4ccccc4)C(=O)[C@@H]3CC[C@@H]12 measure_name=outcome value_reported=inactive
compound=CCOC(=O)CCN1C(=O)[C@@H]2[C@H]3[C@H](O)[C@H](O)CC(=NNC(=O)OCc4ccccc4)[C@@H]3CC[C@H]2C1=O measure_name=outcome value_reported=inactive
compound="O=C1CCC=C1C(O)c1ccc2c(c1)OCO2 (stereo unspecified)" measure_name=outcome value_reported=inactive
compound=C[C@@H](ON=C1[C@H]2CCn3c(=O)n(-c4ccccc4)c(=O)n3[C@@H]2[C@H](O)[C@@H]2O[C@H]12)c1cn([C@H](CO)Cc2ccccc2)nn1 measure_name=outcome value_reported=inactive
compound=CC(C)(C)c1ccc(O[C@@H]2[C@H](O)CO[C@H]2C=CC#Cc2ccccc2)cc1 measure_name=outcome value_reported=inactive
compound="COC(=O)[C@@H]1CC23C(=NC(c4ccc([N+](=O)[O-])cc4)=C(C(F)(F)F)[C@@H]2N(C)c2ccccc23)N1C(C)=O (stereo partly specified)" measure_name=outcome value_reported=inactive
compound="c1ccc(C2NCCc3c2[nH]c2ccccc32)cc1 (stereo unspecified)" measure_name=outcome value_reported=inactive
compound="CC(=O)C1=C(C)N(Cc2ccccc2)C(=O)NC1c1ccc(Br)cc1 (stereo unspecified)" measure_name=outcome value_reported=inactive
compound="CCN1C(=O)NC(c2cccc(F)c2)C(C(=O)OC)=C1C (stereo unspecified)" measure_name=outcome value_reported=inactive
compound=C=CC[C@@](C(C)=O)(C(=O)OC)[C@@H](NC(=O)OC(C)(C)C)c1ccccc1 measure_name=outcome value_reported=inactive
compound="CC12C=C(C=Cc3ccc(F)cc3)C(C)(C1)C(c1ccc(F)cc1)CC2=O (stereo unspecified)" measure_name=outcome value_reported=inactive

Recorded values, source PubChem BioAssay (NCATS).
